B1: KRT18 (parent)
chain: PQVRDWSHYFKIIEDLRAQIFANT

# Variants of: B1
# test.method.notes: protein stability index of a GFP-peptide fusion (GPS, HEK-293T) (PSI 1-6); higher = more stable;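 note: lentivirally expressed fusions sorted by FACS into six bins by GFP to DsRed ratio, PSI derived from sequencing read proportions per bin multiplied by bin number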
# recorded.conditions: c terminus: a fixed tail appended
Label class 0 if protein stability index falls below 2; label class 1 in every other case.

Kindly determine if protein stability index recorded for D15R is above or exactly 2.
class 0

Kindly determine if protein stability index recorded for D15N is above or exactly 2.
class 1

Kindly determine if protein stability index recorded for A18D is above or exactly 2.
class 1

Kindly determine if protein stability index recorded for Y9N is above or exactly 2.
class 1

Kindly determine if protein stability index recorded for T24Y is above or exactly 2.
class 0

Kindly determine if protein stability index recorded for Q2E is above or exactly 2.
class 1

Kindly determine if protein stability index recorded for H8N is above or exactly 2.
class 1

Kindly determine if protein stability index recorded for I12H is above or exactly 2.
class 1

Kindly determine if protein stability index recorded for N23A is above or exactly 2.
class 0

Kindly determine if protein stability index recorded for R17P is above or exactly 2.
class 1

Kindly determine if protein stability index recorded for W6H is above or exactly 2.
class 0

Kindly determine if protein stability index recorded for V3Y is above or exactly 2.
class 1

Kindly determine if protein stability index recorded for W6C is above or exactly 2.
class 0

Kindly determine if protein stability index recorded for I20F is above or exactly 2.
class 1

Kindly determine if protein stability index recorded for H8K is above or exactly 2.
class 1

Kindly determine if protein stability index recorded for W6A is above or exactly 2.
class 0

Kindly determine if protein stability index recorded for H8M is above or exactly 2.
class 1

Kindly determine if protein stability index recorded for I20E is above or exactly 2.
class 1

Kindly determine if protein stability index recorded for I12D is above or exactly 2.
class 1

Kindly determine if protein stability index recorded for P1V is above or exactly 2.
class 1

Kindly determine if protein stability index recorded for D15F is above or exactly 2.
class 0

Kindly determine if protein stability index recorded for Q2N is above or exactly 2.
class 1

Kindly determine if protein stability index recorded for F10A is above or exactly 2.
class 1

Kindly determine if protein stability index recorded for Y9G is above or exactly 2.
class 0

Kindly determine if protein stability index recorded for A18S is above or exactly 2.
class 1

Kindly determine if protein stability index recorded for K11W is above or exactly 2.
class 1

Kindly determine if protein stability index recorded for R4S is above or exactly 2.
class 1

Kindly determine if protein stability index recorded for F10N is above or exactly 2.
class 0

Kindly determine if protein stability index recorded for D5A is above or exactly 2.
class 1

Kindly determine if protein stability index recorded for F10Y is above or exactly 2.
class 0

Kindly determine if protein stability index recorded for A18G is above or exactly 2.
class 0

Kindly determine if protein stability index recorded for R4W is above or exactly 2.
class 1

Kindly determine if protein stability index recorded for S7Y is above or exactly 2.
class 0

Kindly determine if protein stability index recorded for A18Y is above or exactly 2.
class 0

Kindly determine if protein stability index recorded for P1M is above or exactly 2.
class 1

Kindly determine if protein stability index recorded for Q2Y is above or exactly 2.
class 1

Kindly determine if protein stability index recorded for R4E is above or exactly 2.
class 1

Kindly determine if protein stability index recorded for A22C is above or exactly 2.
class 0

Kindly determine if protein stability index recorded for I12M is above or exactly 2.
class 0

Kindly determine if protein stability index recorded for Q19L is above or exactly 2.
class 0

Kindly determine if protein stability index recorded for R4Y is above or exactly 2.
class 0

Kindly determine if protein stability index recorded for Q19G is above or exactly 2.
class 1

Kindly determine if protein stability index recorded for V3G is above or exactly 2.
class 1

Kindly determine if protein stability index recorded for S7Q is above or exactly 2.
class 1

Kindly determine if protein stability index recorded for I20Q is above or exactly 2.
class 1

Kindly determine if protein stability index recorded for K11D is above or exactly 2.
class 0

Kindly determine if protein stability index recorded for S7P is above or exactly 2.
class 1

Kindly determine if protein stability index recorded for L16T is above or exactly 2.
class 1

Kindly determine if protein stability index recorded for E14F is above or exactly 2.
class 0

Kindly determine if protein stability index recorded for Q2L is above or exactly 2.
class 1

Kindly determine if protein stability index recorded for E14L is above or exactly 2.
class 0

Kindly determine if protein stability index recorded for K11V is above or exactly 2.
class 1

Kindly determine if protein stability index recorded for F10D is above or exactly 2.
class 0

Kindly determine if protein stability index recorded for D15Q is above or exactly 2.
class 0

Kindly determine if protein stability index recorded for A18R is above or exactly 2.
class 1

Kindly determine if protein stability index recorded for I13G is above or exactly 2.
class 1

Kindly determine if protein stability index recorded for R4I is above or exactly 2.
class 1

Kindly determine if protein stability index recorded for R17M is above or exactly 2.
class 1

Kindly determine if protein stability index recorded for D15T is above or exactly 2.
class 0

Kindly determine if protein stability index recorded for L16A is above or exactly 2.
class 1
